Test system: RVH421
Assay: apoptotic fraction of cells (caspase-3 NucView488 positive); higher = more apoptosis
Settings: 48 h; 0.0316 µM
Reported property: apoptotic fraction of cells

{"columns": ["Molecule smiles", "Result number"],
 "data": [
  ["CCCS(=O)(=O)Nc1ccc(F)c(C(=O)c2c[nH]c3ncc(-c4ccc(Cl)cc4)cc23)c1F", 0.0538],
  ["CCCS(=O)(=O)Nc1ccc(F)c(C(=O)c2c[nH]c3ncc(Cl)cc23)c1F", 0.0512],
  ["Cc1ccc(NC(=O)c2cccc(C(C)(C)C#N)c2)cc1Nc1ccc2ncn(C)c(=O)c2c1", 0.0555],
  ["Cn1cnc2c(F)c(Nc3ccc(Br)cc3Cl)c(C(=O)NOCCO)cc21", 0.0622],
  ["CN(C)CCOc1ccc(-c2nc(-c3ccncc3)c(-c3ccc4c(c3)CC/C4=N\\O)[nH]2)cc1", 0.0615]
]}
